Test system: COLO 205 colorectal tumor cells
Assay: Tumor cell viability inhibition assay (CellTiter-Glo 2.0, 72 hours)
Format: cell-based
Settings: Homo sapiens, COLO 205, 72 h, COLO 205 cell viability
property.measured: IC50

Use the examples below as a reference point.
Cc1csc([C@H]2CCCN([C@H]3CCc4nc(C)n(CCOc5ccc(Cl)cc5-c5cc(C)nc6c(C(=O)O)csc56)c(=O)c4C3)C2)n1 (single isomer, unassigned) [Compound 482]: < 5 µM
Cc1cc(-c2cc(Cl)ccc2OCCn2c(C)nc3c(c2=O)C[C@H](N2CCC(c4ncn(C)n4)CC2)CC3)c2scc(C(=O)O)c2n1 (single isomer, unassigned) [Compound 462]: < 5 µM

Parameter requested: IC50. Apply to each item below.
1. Cc1cc(-c2cc(Cl)ccc2OCCn2c(C)nc3c(c2=O)C[C@@H](N2CC[C@H](OC(F)(F)F)C(F)(F)C2)CC3)c2scc(C(=O)O)c2n1 (single isomer, unassigned) [Compound 406]
2. CO[C@H]1CCN([C@H]2CCc3nc(C)n(CCOc4ccc(Cl)cc4-c4cc(C)nc5c(C(=O)O)csc45)c(=O)c3C2)C1 (single isomer, unassigned) [Compound 44]
3. Cc1cc(-c2cc(Cl)ccc2OCCn2c(C)nc3c(c2=O)CC(N2CCCCC2)CC3)c2scc(C(=O)NS(C)(=O)=O)c2n1 (stereo not shown) [Compound 31]
4. Cc1cc(-c2cc(Cl)ccc2OCCn2c(C)nc3c(c2=O)C[C@@H](N2CCC[C@@H](C(F)F)C2)CC3)c2scc(C(=O)O)c2n1 (single isomer, unassigned) [Compound 100]
5. Cc1cc(-c2cc(Cl)ccc2OCCn2c(C)nc3c(c2=O)C[C@H](N2CCCC[C@@H]2c2cccc(C(F)(F)F)c2)CC3)c2scc(C(=O)O)c2n1 (single isomer, unassigned) [Compound 590]
6. Cc1cc(-c2cc(Cl)ccc2OCCn2c(C)nc3c(c2=O)C[C@@H](N(C)[C@H]2CC[C@@](C)(O)CC2)CC3)c2scc(C(=O)NS(C)(=O)=O)c2n1 (single isomer, unassigned) [Compound 215]
7. Cc1cc(-c2cc(Cl)ccc2OCCn2c(C)nc3c(c2=O)C[C@H](N2C[C@H]4CCC(F)(F)[C@H]4C2)CC3)c2scc(C(=O)O)c2n1 (single isomer, unassigned) [Compound 166]

Result:
5 to 20 µM
< 5 µM
< 5 µM
< 5 µM
> 20 µM
> 20 µM
< 5 µM

Problem: Would you mind telling me what IC50 value was observed for Cc1cc(-c2cc(Cl)ccc2OCCn2c(C)nc3c(c2=O)C[C@H](N2CCC[C@H](OC(F)(F)F)C2)CC3)c2scc(C(=O)O)c2n1 (single isomer, unassigned) [Compound 457] ?
Result: < 5 µM

---

Would you kindly list pIC50 for each of these compounds?
Tested on: COLO 205 colorectal tumor cells
Assay: Tumor cell viability inhibition assay (CellTiter-Glo 2.0, 72 hours)
Type: cell-based
Conditions: Homo sapiens, COLO 205, 72 h, COLO 205 cell viability
pIC50: −log10 of the molar value.

Use the examples below as a reference point.
Cc1cc(-c2cc(Cl)ccc2OCCn2c(C)nc3c(c2=O)C[C@@H](N2C[C@@H]4CC(F)(F)[C@@H]4C2)CC3)c2scc(C(=O)O)c2n1 (single isomer, unassigned): > 5.30
Cc1nc2c(c(=O)n1CC#Cc1ccc(Cl)cc1-c1ccnc3c(C(=O)O)csc13)CC(N1CCCCC1)CC2 (single isomer, unassigned) [Compound 298]: > 5.30
Cc1cc(-c2cc(Cl)ccc2OCCn2c(C)nc3c(c2=O)CC(N(C)C(=O)C2CCN(CC(F)(F)F)CC2)CC3)c2scc(C(=O)NS(C)(=O)=O)c2n1 (stereo not shown): < 4.70

Parameter requested: pIC50. Apply to each item below.
1. Cc1cc(-c2cc(Cl)ccc2OCCn2c(C)nc3c(c2=O)C[C@H](N2CCCC[C@@H]2c2nccs2)CC3)c2scc(C(=O)O)c2n1 (single isomer, unassigned)
2. Cc1cc(-c2cc(Cl)ccc2OCCn2c(C)nc3c(c2=O)C[C@H](N(C)[C@H]2CC[C@@](C)(O)C2)CC3)c2scc(C(=O)O)c2n1 (single isomer, unassigned)
3. COC1CCN(C2CCc3nc(C)n(CCOc4ccc(Cl)cc4-c4cc(C)nc5c(C(=O)NCC(F)F)csc45)c(=O)c3C2)CC1 (stereo not shown)
4. Cc1cc(-c2cc(Cl)ccc2OCCn2c(C)nc3c(c2=O)C[C@H](N2CCC[C@]4(C2)CC4(F)F)CC3(C)C)c2scc(C(=O)O)c2n1 (single isomer, unassigned)
5. Cc1cc(-c2cc(Cl)ccc2OCCn2c(C)nc3c(c2=O)CC(N2CCc4ccncc4C2)CC3)c2scc(C(=O)O)c2n1 (stereo not shown)
6. Cc1cc(-c2cc(Cl)ccc2OCCn2c(C)nc3c(c2=O)CC(N(C)Cc2ccnc(N)n2)CC3)c2scc(C(=O)O)c2n1 (stereo not shown)
7. Cc1cc(-c2cc(Cl)ccc2OCCn2c(C)nc3c(c2=O)CC(N2CCc4ncccc4C2)CC3)c2scc(C(=O)O)c2n1 (stereo not shown)

Result:
["> 5.30", "< 4.70", "4.70 to 5.30", "> 5.30", "> 5.30", "< 4.70", "> 5.30"]

Parameter requested: pIC50. Apply to each item below.
1. Cc1cc(-c2cc(Cl)ccc2OCCn2c(C)nc3c(c2=O)CC(N2CC4C(C2)C4(F)F)CC3)c2scc(C(=O)O)c2n1 (stereo not shown)
2. Cc1cc(-c2cc(Cl)ccc2OCCn2c(C)nc3c(c2=O)CC(N(C)C2CCC(F)(F)C2)CC3)c2scc(C(=O)O)c2n1 (single isomer, unassigned)

Result:
["> 5.30", "> 5.30"]

Parameter requested: pIC50. Apply to each item below.
1. Cc1cc(-c2cc(Cl)ccc2OCCn2c(C)nc3c(c2=O)CC(N2CCC(OC4CC4)CC2)CC3)c2scc(C(=O)O)c2n1 (stereo not shown)
2. Cc1cc(-c2cc(Cl)ccc2OCCn2c(C)nc3c(c2=O)CC(N(C)Cc2ccnc(C(F)(F)F)c2)CC3)c2scc(C(=O)O)c2n1 (stereo not shown)
3. Cc1cc(-c2cc(Cl)ccc2OCCn2c(C)nc3c(c2=O)CC(N(C)CC2(C)COC2)CC3)c2scc(C(=O)NS(C)(=O)=O)c2n1 (single isomer, unassigned)
4. Cc1cc(-c2cc(Cl)ccc2OCCn2c(C)nc3c(c2=O)CC(N2CCC(F)(F)CC2)CC3)c2scc(C(=O)NS(C)(=O)=O)c2n1 (single isomer, unassigned) [Compound 251]
5. Cc1cc(-c2cc(Cl)ccc2OCCn2c(C)nc3c(c2=O)C[C@@H](N2CCC[C@@H](c4ccn(C)n4)C2)CC3)c2scc(C(=O)O)c2n1 (single isomer, unassigned)

Result:
["> 5.30", "> 5.30", "4.70 to 5.30", "> 5.30", "< 4.70"]

Parameter requested: pIC50. Apply to each item below.
1. Cc1cc(-c2cc(Cl)ccc2OCCn2c(C)nc3c(c2=O)C[C@H](N2CCC(O)CC2)CC3)c2scc(C(=O)O)c2n1 (single isomer, unassigned)
2. Cc1cc(-c2cc(Cl)ccc2OCCn2c(C)nc3c(c2=O)CC(N(CC2CC(F)(F)C2)C2CC2)CC3)c2scc(C(=O)O)c2n1 (single isomer, unassigned)
3. Cc1cc(-c2cc(Cl)ccc2OCCn2c(C)nc3c(c2=O)C[C@H](N(C)[C@H]2CC[C@](C)(O)CC2)CC3)c2scc(C(=O)O)c2n1 (single isomer, unassigned)
4. Cc1cc(-c2cc(Cl)ccc2OCCn2c(C)nc3c(c2=O)CC(N(C)Cc2ccncc2)CC3)c2scc(C(=O)NS(C)(=O)=O)c2n1 (single isomer, unassigned) [Compound 330]
5. Cc1cc(-c2cc(Cl)ccc2OCCn2c(C)nc3c(c2=O)C[C@H](N2CCC(c4ncco4)CC2)CC3)c2scc(C(=O)O)c2n1 (single isomer, unassigned)

Result:
["> 5.30", "4.70 to 5.30", "< 4.70", "> 5.30", "> 5.30"]

---

Molecular target: human eIF4E protein (Homo sapiens, UniProt P06730)
Sequence (P06730 whole entry): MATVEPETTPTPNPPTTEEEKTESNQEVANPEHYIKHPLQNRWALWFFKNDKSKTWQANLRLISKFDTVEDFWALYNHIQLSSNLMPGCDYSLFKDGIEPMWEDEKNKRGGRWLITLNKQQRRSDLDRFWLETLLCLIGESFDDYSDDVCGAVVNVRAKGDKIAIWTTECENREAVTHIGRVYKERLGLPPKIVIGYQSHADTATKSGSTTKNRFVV
Would you kindly list IC50 for each of these compounds?

Cc1cc(-c2cc(Cl)ccc2OCCn2c(C)nc3c(c2=O)C[C@@H](N2CC4(CCC(F)(F)CC4)C2)CC3)c2scc(C(=O)O)c2n1 (single isomer, unassigned): < 100 nM
CO[C@@H]1CCN([C@H]2CCc3nc(C)n(CCOc4ccc(Cl)cc4-c4cc(C)nc5c(C(=O)O)csc45)c(=O)c3C2)CC12CC2 (single isomer, unassigned): < 100 nM
Cc1cc(-c2cc(Cl)ccc2OCCn2c(C)nc3c(c2=O)CC(N2CCC(F)(F)CC2)CC3)c2scc(C(=O)NS(C)(=O)=O)c2n1 (single isomer, unassigned) [Compound 254]: < 100 nM
Cc1cc(-c2cc(Cl)ccc2OCCn2c(C)nc3c(c2=O)CC(C)(N2CCC4(CC2)CC4(F)F)CC3)c2scc(C(=O)O)c2n1 (single isomer, unassigned): < 100 nM
Cc1cc(-c2cc(Cl)ccc2OCCn2c(C)nc3c(c2=O)CC(N2CCN(C)C(=O)C2)CC3)c2scc(C(=O)NS(C)(=O)=O)c2n1 (stereo not drawn): < 100 nM

// below: IC50 requested for another compound
Problem: Would you mind telling me what IC50 value was observed for CNC1CCc2nc(C)n(CCOc3ccc(Cl)cc3-c3cccc(C(=O)O)c3)c(=O)c2C1 (stereo not drawn) ?
Result: < 100 nM
